System: HL-60(TB) leukemia
Assay: NCI tumour cell line growth inhibition, 48 h
Reported values of TGI for individual entries
The answer is to be given in µM; state only the numeric part.

Worked examples follow.
{"columns": ["MOLECULE", "TGI [µM]"],
 "data": [
  ["O=C1C=CC(=O)N1c1cccc(N2C(=O)C=CC2=O)c1", 5.12],
  ["Cc1ccnc2[nH]c(-c3ccc(F)cc3)cc(=O)c12", 38.5]
]}

Proceeding to the next molecule to report its TGI.
Input line: Give its TGI value. Item: Cc1ccc(C(=O)/C(=C\c2ccc([N+](=O)[O-])cc2)S(=O)Cc2ccc(Cl)cc2)cc1 (stereo not given)
Output line: 6.82
